# credit: the supplement of paper PMC5998384

Listing of recorded melting temperature by entry.
Tested on: HeLa Kyoto
Experimental protocol: melting temperature (median over replicates), in situ; higher = more thermally stable
Conditions: cell cycle stage: G1/S

>  <Sequence input>
MVIRVYIASSSGSTAIKKKQQDVLGFLEANKIGFEEKDIAANEENRKWMRENVPENSRPATGYPLPPQIFNESQYRGDYDAFFEARENNAVYAFLGLTAPPGSKEAEVQAKQQA [SH3BGRL]

>  <melting temperature / °C>
53.2

$$$$
>  <Sequence input>
MSGESARSLGKGSAPPGPVPEGSIRIYSMRFCPFAERTRLVLKAKGIRHEVININLKNKPEWFFKKNPFGLVPVLENSQGQLIYESAITCEYLDEAYPGKKLLPDDPYEKACQKMILELFSKVPSLVGSFIRSQNKEDYAGLKEEFRKEFTKLEEVLTNKKTTFFGGNSISMIDYLIWPWFERLEAMKLNECVDHTPKLKLWMAAMKEDPTVSALLTSEKDWQGFLELYLQNSPEACDYGL [GSTO1]

>  <melting temperature / °C>
53.7

$$$$
>  <Sequence input>
MAPRRVRSFLRGLPALLLLLLFLGPWPAASHGGKYSREKNQPKPSPKRESGEEFRMEKLNQLWEKAQRLHLPPVRLAELHADLKIQERDELAWKKLKLDGLDEDGEKEARLIRNLNVILAKYGLDGKKDARQVTSNSLSGTQEDGLDDPRLEKLWHKAKTSGKFSGEELDKLWREFLHHKEKVHEYNVLLETLSRTEEIHENVISPSDLSDIKGSVLHSRHTELKEKLRSINQGLDRLRRVSHQGYSTEAEFEEPRVIDLWDLAQSANLTDKELEAFREELKHFEAKIEKHNHYQKQLEIAHEKLRHAESVGDGERVSRSREKHALLEGRTKELGYTVKKHLQDLSGRISRARHNEL [LRPAP1]

>  <melting temperature / °C>
55.3

$$$$

* * *

Test system: HeLa Kyoto
Experimental protocol: solubility in G1/S (NP-40 vs SDS abundance) (log2 ratio); higher = more soluble
Conditions: cell cycle stage: G1/S
Decision: solubility in G1/S (log2) compared against 0.08; not below it gives T, below it gives F.

>  <Sequence input>
MSGFSTEERAAPFSLEYRVFLKNEKGQYISPFHDIPIYADKDVFHMVVEVPRWSNAKMEIATKDPLNPIKQDVKKGKLRYVANLFPYKGYIWNYGAIPQTWEDPGHNDKHTGCCGDNDPIDVCEIGSKVCARGEIIGVKVLGILAMIDEGETDWKVIAINVDDPDAANYNDINDVKRLKPGYLEATVDWFRRYKVPDGKPENEFAFNAEFKDKDFAIDIIKSTHDHWKALVTKKTNGKGISCMNTTLSESPFKCDPDAARAIVDALPPPCESACTVPTDVDKWFHHQKN [PPA1]

>  <Discrete label>
T

$$$$
>  <Sequence input>
MTRGNQRELARQKNMKKQSDSVKGKRRDDGLSAAARKQRDSEIMQQKQKKANEKKEEPK [SERF2]

>  <Discrete label>
T

$$$$
>  <Sequence input>
MKLLRRAWRRRAALGLGTLALCGAALLYLARCAAEPGDPRAMSGRSPPPPAPARAAAFLAVLVASAPRAAERRSVIRSTWLARRGAPGDVWARFAVGTAGLGAEERRALEREQARHGDLLLLPALRDAYENLTAKVLAMLAWLDEHVAFEFVLKADDDSFARLDALLAELRAREPARRRRLYWGFFSGRGRVKPGGRWREAAWQLCDYYLPYALGGGYVLSADLVHYLRLSRDYLRAWHSEDVSLGAWLAPVDVQREHDPRFDTEYRSRGCSNQYLVTHKQSLEDMLEKHATLAREGRLCKREVQLRLSYVYDWSAPPSQCCQRREGIP [B3GALT6]

>  <Discrete label>
F

$$$$
>  <Sequence input>
MRKMLAAVSRVLSGASQKPASRVLVASRNFANDATFEIKKCDLHRLEEGPPVTTVLTREDGLKYYRMMQTVRRMELKADQLYKQKIIRGFCHLCDGQEACCVGLEAGINPTDHLITAYRAHGFTFTRGLSVREILAELTGRKGGCAKGKGGSMHMYAKNFYGGNGIVGAQVPLGAGIALACKYNGKDEVCLTLYGDGAANQGQIFEAYNMAALWKLPCIFICENNRYGMGTSVERAAASTDYYKRGDFIPGLRVDGMDILCVREATRFAAAYCRSGKGPILMELQTYRYHGHSMSDPGVSYRTREEIQEVRSKSDPIMLLKDRMVNSNLASVEELKEIDVEVRKEIEDAAQFATADPEPPLEELGYHIYSSDPPFEVRGANQWIKFKSVS [PDHA1]

>  <Discrete label>
T

$$$$
